B1: glmS ribozyme (parent)
chain: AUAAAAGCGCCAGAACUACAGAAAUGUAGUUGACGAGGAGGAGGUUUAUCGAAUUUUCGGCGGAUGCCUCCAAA

# Variants of: B1
# Protocol: kcat; higher = faster cleavage; RNA array
# Condition Notes: with glucosamine-6-phosphate
Variants at the floor of the assay were thinned out.
// values below are reported kcat

| Sequence String | Operator Symbol | kcat [s⁻¹] |
| --- | --- | --- |
| AUAAAAGCGUCAGAACUACAGAAAUGUAAUUGACGAGGAGGAGGUUUAUCGAAUUUUCGGCGGAUGCCUCCAAA [C10U G29A] | < | 1e-05 |
| AUAAAAGCGCCAGAACUACAGAAAUGUAGUUGACGAGGAGGAGGUCUAUCGAAUUAUCGGCGGAUGCCUCCAAA [U46C U56A] | = | 0.00121 |
| AUAAAAGCGCCAGAACUACAGAAAUGUAGUUGACGAGGGGGAGGUUUAUCGAAUUUUCGGCGGAUACCUCCAAA [A39G G66A] | = | 0.0379 |
| AUAAAAGCGCCAGAACUACAGAAAUGUAGUUGACGAGGAGGAGGCUUAUCGAACUUUCGGCGGAUGCCUCCAAA [U45C U54C] | = | 0.00224 |
| AUAAAAGCGCCAGUACUACAGAAAUGUAGAUGACGAGGAGGAGGUUUAUCGAAUUUUCGGCGGAUGCCUCCAAA [A14U U30A] | = | 0.00136 |
| AUAAAAGCGCCAGAACUACAGAAAUGUAGGUGACGAGGAGGAGGUUUAUCGAUUUUUCGGCGGAUGCCUCCAAA [U30G A53U] | = | 0.00761 |
| AUAAAAGCGCCAGAAAUACAGAAAUGUAGUUGACGAGGAGGAGGUUUAUCGGAUUUUCGGCGGAUGCCUCCAAA [C16A A52G] | = | 0.000129 |
| AUAAAAGCGCCAGAACUACAGAAAUGUAGUUGACGAGGACGAGGUUUAUCGAAUUCUCGGCGGAUGCCUCCAAA [G40C U56C] | = | 6.61e-05 |
| AUAAAUGCGCCAGAACUACAGAAAUGUAGUUGACGAGGAGGAGGUUUAUCGAAUUUUCGGCGGAGGCCUCCAAA [A6U U65G] | = | 3.43e-05 |
| AUAAAAGCGCCGGAACUACAGAAAUGUAGUUGACGAGGAGGAGGUUUAUCGAAUUUUCGGCGGAUGCCUCCAAA [A12G] | = | 0.00143 |
| AUAAAAGCGCCAGAACUACAGAAAUGUAGUCGACGAGUAGGAGGUUUAUCGAAUUUUCGGCGGAUGCCUCCAAA [U31C G38U] | < | 1e-05 |
| AUAAAAGCGCCAGAACUACAGAAAUGUAGUUGACGAGGAGGAGGUUUAUCGAAUUUUCGGCGGACGGCUCCAAA [U65C C67G] | = | 6.8e-05 |
| AUAAAAGCGCCAGAACUACAGAAAUGUAGUUGACGAGGAGGAGGUUUAUCGAAUUUUCGGCGGUUGACUCCAAA [A64U C67A] | = | 2.58e-05 |
| AUAAAAGCGCCAGAACUACAGAAAUGUAGUUGACGAGGAGGAGGUUUAUCGAAUUCUCGGCGGAUGCCUCCAAA [U56C] | = | 0.00571 |
| AUAAAAGCGCAAGAACUACAGAAAUGUAGUUGACGAGGAGGAGGUUUAUCGAAUUUUAGGCGGAUGCCUCCAAA [C11A C58A] | = | 2e-05 |
| AUAAAAGCGCCAGCUCUACAGAAAUGUAGUUGACGAGGAGGAGGUUUAUCGAAUUUUCGGCGGAUGCCUCCAAA [A14C A15U] | = | 0.000353 |
| AUAAAAGCGCCAGAACUACAGAAAUGUAGUUGACGAGGAGGAGGUGUAUCGAAUUUUCGGCGGAUGUCUCCAAA [U46G C67U] | = | 0.00338 |
| AUAAAAGCGCCAGAACUACAGAAAUGUAGUUGACGAGGAGGAGGUUUAUCGAAGUAUCGGCGGAUACCUCCAAA [U54G U56A G66A] | = | 0.00395 |
| AUAAAAGCGCCAGAACUACAGAAAUGUAGUUGACGAUGAGGAGGUUUAUCGAAUUUUUGGCGGAUGCCUCCAAA [G37U C58U] | < | 1e-05 |
| AUAAAAGCGCCAGAACUACAGAAAUGUAGUUGUCGAGGAGGAGGUUUAUCGAAAUUUCGGCGGAUGCAUCCAAA [A33U U54A C68A] | = | 2.8e-05 |
| AUAAAAGCGCCAGAACUACAGAAAUGUAGUCGACGAGGAGGAGGUUUAUCGAAUUUUCGGCGGAUUCCUCCAAA [U31C G66U] | = | 0.000326 |
| AUAAAAGCGCAAGAACUACAGAAAUGUAGUUGACGAGGAGAAGGUUUAUCGAAUUUUCGGCGGAUGCCUCCAAA [C11A G41A] | < | 1e-05 |
| AUAAAUGCGCCAGAACUACAGAAAUGUAGUUGACGAGGAGGAGGUUUAUCGAAUUUUCAGCGGAUGCUUCCAAA [A6U G59A C68U] | = | 1.04e-05 |
| AUAAAAGCGCCAGAACUACAGAAAUGUAGUUGACGAGGAGGAGCUUUAUCGGAUUUUCGGCGGAUGCCUCCAAA [G44C A52G] | < | 1e-05 |
| AUAAAAGCGCGAGAACUACAGAAAUGUAGUUGACGAGGAGGAGGUUUAUCGAAUUUUCUGCGGAUGCCUCCAAA [C11G G59U] | = | 0.000116 |
| AUAAAUGCGCCAGAACUACAGAAAUGUAGUUGACGAGGAGGAGGUUUAUCGAAUUUUCGGCGGAUGCCUCUAAA [A6U C71U] | = | 0.000302 |
| AUAAAAGCGCCAGAACUACAGAAAUGUAGUUGACGAGGAGGAGGUUUAUCGAAUGUUAGGCGGAUGCCUCCAAA [U55G C58A] | = | 0.000783 |
| AUAAAAGCGCCAGAACUACAGAAAUGUAGUUCACGAGGAGGAGGUUUAUCGGAUUUUCGGCGGAUGCCUCCAAA [G32C A52G] | = | 1.94e-05 |
| AUAAAAGCGCCAGAACUACAGAAAUGUAGUGGACGAGGAGGAGGUUUAUCGAAUUUUCGGCGGCUGCCUCCAAA [U31G A64C] | = | 2.01e-05 |
| AUAAAAGCGCAAGAACUACAGAAAUGUAGUUGACGAGGAGGAGGUUUAUCGUAUUUUCGGCGGAUGGCUCCAAA [C11A A52U C67G] | = | 2.85e-05 |
| AUAAAGGCGCCAGAACUACAGAAAUGUAGUUGACGAGGAGGAGGUUUAUCGAAUUUUCGGCGGAUGACUCCAAA [A6G C67A] | = | 0.00012 |
| AUAAAAGCGCCAGAACUACAGAAAUGUAGUUGACGAGAAGGAGGUUUAUCGAAUUUUCGGCGGAUGCCUACAAA [G38A C70A] | < | 1e-05 |
| AUAAAAGCGCCAGAACUACAGAAAUGUAGUUGACGAGGAGGAGGUUUAUCGCAGUUUCGGCGAAUGCCUCCAAA [A52C U54G G63A] | = | 1.25e-05 |
| AUAAAAGCGCCAGAACUACAGAAAUGUAGUUAACGAGGAGGAGGUUUAUCGAACUUUCGGCGGAUGCCUCCAAA [G32A U54C] | = | 0.00356 |
| AUAAAAGCGCCAGAACUACAGAAAUGUAGUUGACGAGGGGGAGGUUUAUCGAAUUUUCGGCGGAUGGCUCCAAA [A39G C67G] | = | 0.00311 |
| AUAAAAGCGUCAGAACUACAGAAAUGUAGUUGACGAGGAGGAGGUUUAUCGAAAUUUCGGCGGAUGCCUCCAAA [C10U U54A] | = | 4.72e-05 |
| AUAAAAGCGUCAGAACUACAGAAAUGUAGCUGACGAGGAGGAGGUUUAUCGAAUUUUCAACGGAUGCCUUCAAA [C10U U30C G59A G60A C70U] | < | 1e-05 |
| AUAAAAGCGCCAGAACUACAGAAAUGUAGUUGACGAGGGGGAGGAUUAUCGAAUUUUCGGCGGAUGCCUCCAAA [A39G U45A] | = | 0.0357 |
| AUAAAAGCGCCAGAACUACAGAAAUGUAGUUGACGAGGAGGAGGUUUAUCGAAUUUUUGGCGGAUGUCUCCAAA [C58U C67U] | = | 2.38e-05 |
| AUAAAAGCGCCAGAACUACAGAAAUGUAGGUGACGAGGAGGAGGUUUAUCGGAUUUUCGGCGGAUGCCUCCAAA [U30G A52G] | = | 0.000498 |
| AUAAAAGCGCCAGAACUACAGAAAUGUAGGUGACGAGGAGGAGGUUUAUCGAAUUAUCGGCGGAUGCCUCCAAA [U30G U56A] | = | 0.00811 |
| AUAAAAGCGCCAGAACUACAGAAAUGUAGUUGACGAGGACGAGGUUUAUCGAAUUUUCGGCGGAUGCCUCUAAA [G40C C71U] | = | 0.00477 |
| AUAAAAGCGCCAGAACUACAGAAAUGUAGCUGACGAGGAGGAGGUUUAUCGAAUUAUCGGCGGAUGCCUCCAAA [U30C U56A] | = | 0.000339 |
| AUAAAAGCGCCAGAACUACAGAAAUGUAGUUGACGAAGAGGAGGUUUAUCGAUUUUUCGGCGGAUGCCUCUAAA [G37A A53U C71U] | = | 0.00135 |
| AUAAAAGCGCCAGAACUACAGAAAUGUAGUUGACGAGGAGGAGGUUUAUCGAAUUUUCGGCGGACGCCGCCAAA [U65C U69G] | = | 4.17e-05 |
| AUAAAAGCGCCAGAACUACAGAAAUGUAGUUGACGUGGAGGAGGUUUAUCGAAAUUUCGGCGGAUGCCUCCAAA [A36U U54A] | < | 1e-05 |
